molecular target: cGMP-specific 3',5'-cyclic phosphodiesterase PDE5 (Cavia porcellus); assay: Inhibition of Phosphodiesterase 5 of guinea pig lung
For each record, write down the corresponding IC50.
Your answer should be a plain number; it is taken to be in µM.

### Prompt So what IC50 did `COc1cc2cc(CO)c(CO)c(-c3ccnc(-n4nc(-c5cccnc5)c5ccccc5c4=O)c3)c2cc1OC` get with cGMP-specific 3',5'-cyclic phosphodiesterase PDE5 (Cavia porcellus)?
### Response 4

### Prompt Note, next up: `COc1cc2cc(CO)c(CO)c(-c3ccc(-n4nc(-c5cccnc5)c5ccccc5c4=O)nc3)c2cc1OC`
### Response 40

### Prompt Note, next up: `O=c1c2ccccc2c(-c2cccnc2)nn1-c1cc(-c2c(CO)c(CO)cc3ccccc23)ccn1`
### Response 10

### Prompt Note, next up: `COc1cc2cc(CO)c(CO)c(-c3ccnc(-n4ccccc4=O)c3)c2cc1OC`
### Response 40
